For each of the molecules below, state its drug sensitivity score.
test system: COV362; experiment: drug sensitivity score (DSS) from 5-point dose-response viability curve (DSS (area-under-curve based score)); higher = more sensitive (stronger growth inhibition or killing); extreme values may be limits of the assay; settings: exposure time: 72 h; concentration range: 5 concentrations over 10,000-fold range
Give bare numbers.

Worked set:
COc1ccc(-c2ccc3c(N4CCOC[C@@H]4C)nc(N4CCOC[C@@H]4C)nc3n2)cc1CO :: 6.4
Cc1ccc(NC(=O)c2ccc(CN3CCN(C)CC3)cc2)cc1Nc1nccc(-c2cccnc2)n1 :: 0.3
CN[C@@H](C)C(=O)N[C@H](C(=O)N1CCC[C@H]1c1nc(C(=O)c2ccc(F)cc2)cs1)C1CCCCC1 :: 1.9

Give drug sensitivity score for each of the items listed below.
1. CC/C(=C(\c1ccccc1)c1ccc(OCCN(C)C)cc1)c1ccccc1
2. CC(C)Cn1cnc2c(N)nc3ccccc3c21

1: 0.8; 2: 0

Return reported drug sensitivity score values for all items listed beneath this line.
1. O=C(Nc1cccc(Nc2ncc(Br)c(NCCc3cnc[nH]3)n2)c1)N1CCCC1
2. CN1CCN(c2ccc3nc(-c4c(N)c5c(F)cccc5[nH]c4=O)[nH]c3c2)CC1
3. CC[C@@H]1C(=O)OC[C@@H]1Cc1cncn1C

[1.3, 0, 0]

Short answer for N#CC1(c2ccc(NC(=O)c3cccnc3NCc3ccncc3)cc2)CCCC1 : drug sensitivity score was 0

###

test system: Ovsaho; test: drug sensitivity score (DSS) from 5-point dose-response viability curve (DSS (area-under-curve based score)); higher = more sensitive (stronger growth inhibition or killing); extreme values may be limits of the assay; details: exposure time: 72 h; concentration range: 5 concentrations over 10,000-fold range
What drug sensitivity score was measured for each of the following?

// worked examples, drug sensitivity score included
CN1CC[C@H](c2c(O)cc(O)c3c(=O)cc(-c4ccccc4Cl)oc23)[C@H](O)C1 :: 15.9
CC[C@@H]1C(=O)OC[C@@H]1Cc1cncn1C :: 0
C[C@@H]1C=C2C(=O)O[C@@H]3CC[C@H](C1)[C@]23O :: 4.6
CCOc1cc2ncc(C#N)c(Nc3ccc(OCc4ccccn4)c(Cl)c3)c2cc1NC(=O)/C=C/CN(C)C :: 0
C[C@H]1CN(C2COC2)CCN1c1ccc(Nc2cc(-c3ccnc(N4CCn5c(cc6c5CC(C)(C)C6)C4=O)c3CO)cn(C)c2=O)nc1 :: 0

For each entry beneath this line, provide reported drug sensitivity score.
1. CS(=O)(=O)CCNCc1ccc(-c2ccc3ncnc(Nc4ccc(OCc5cccc(F)c5)c(Cl)c4)c3c2)o1
2. O=C(O)c1ccc(-c2c[nH]c3ncc(-c4ccccc4)cc23)cc1C1CCCC1
3. CC#CC(=O)N1CCC[C@H]1c1nc(-c2ccc(C(=O)Nc3ccccn3)cc2)c2c(N)nccn12
4. C[C@@H](Oc1ccc2[nH]nc(/C=C/c3cnn(CCO)c3)c2c1)c1c(Cl)cncc1Cl
5. Nc1nc(Cl)nc2c1ncn2[C@@H]1O[C@H](CO)[C@@H](O)[C@@H]1F
6. COC(=O)c1ccc2c(c1)[nH]c1ncnc(NCCCN3CCCCC3)c12

[0, 0, 1, 4.9, 4.7, 0.1]

Batch request: drug sensitivity score for each of the following molecules.
1. CC(C)[C@H](C(=O)Nc1ccc(C(=O)NO)cc1)c1ccccc1
2. COc1cc2c(cc1-c1c(C)noc1C)ncc1[nH]c(=O)n([C@H](C)c3ccccn3)c12
3. CCNC(=O)c1noc(-c2cc(C(C)C)c(O)cc2O)c1-c1ccc(CN2CCOCC2)cc1
4. CN(C)C1CCN(C(=O)c2ccc(NC(=O)Nc3ccc(-c4nc(N5CCOCC5)nc(N5CCOCC5)n4)cc3)cc2)CC1
5. CCCS(=O)(=O)Nc1ccc(F)c(C(=O)c2c[nH]c3ncc(-c4ccc(Cl)cc4)cc23)c1F

9
12
8.7
13.4
0
